# System Under Test: Rlig1-AMP (Homo sapiens, UniProt Q8N999)
# Construct: made in house; host or cells: E. coli BL21 (DE3), pET15b-Rlig1
# Sequence (Q8N999 whole entry): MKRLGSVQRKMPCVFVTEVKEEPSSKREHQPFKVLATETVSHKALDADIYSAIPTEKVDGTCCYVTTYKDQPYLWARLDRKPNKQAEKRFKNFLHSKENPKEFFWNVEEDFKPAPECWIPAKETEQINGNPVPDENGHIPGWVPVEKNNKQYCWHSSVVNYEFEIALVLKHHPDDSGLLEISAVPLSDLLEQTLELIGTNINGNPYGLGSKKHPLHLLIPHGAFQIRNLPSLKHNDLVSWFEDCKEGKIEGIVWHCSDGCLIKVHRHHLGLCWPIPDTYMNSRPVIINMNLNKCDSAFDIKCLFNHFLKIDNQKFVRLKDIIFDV
# Assay Procedure: FRET-based high-throughput screening of inhibitors for Rlig1-AMP
# Assay type: biochemical
# Cond: sheet HTS hits; without enzyme
Measured Quantity: Raw data [w/o Enzym]

compound=CO[C@H]1/C=C/O[C@@]2(C)Oc3c(C)c(O)c4c(O)c(c(/C=N/N5CCN(C)CC5)c(O)c4c3C2=O)NC(=O)/C(C)=C\C=C\[C@H](C)[C@H](O)[C@@H](C)[C@@H](O)[C@@H](C)[C@H](OC(C)=O)[C@@H]1C experimental_value=2480
compound="Cc1cccc2c3c(ccc12)C(=O)C1=C(OCC1C)C3=O (stereo not drawn) [Dihydroisotanshinone I]" experimental_value=13102

Q) // query Raw data [w/o Enzym] value for entry [N-]=[N+]=NCCOCCOCCOCCN(CCOCCOCCN)CCOCCOCCOCCN=[N+]=[N-] [N-(Amino-PEG2)-N-bis(PEG3-azide)]
A) 10955

Q) Same question, COc1cc2c(NCC3CCN(C)CC3)cc(-c3ccc(C)o3)nc2cc1OCCCN1CCCC1.Cl.Cl.Cl [CM-579 trihydrochloride] this time
A) 7504

Q) Next up: `CC(C)=CCc1cc([C@@H]2CC(=O)c3ccc(O)c(CC=C(C)C)c3O2)ccc1O`
A) 10496

Q) Try O=C(O)CCCN1CCC(O[C@@H](c2ccc(Cl)cc2)c2ccccn2)CC1.O=S(=O)(O)c1ccccc1 [Bepotastine (besilate)] next.
A) 10662

Q) Proceed to `Cc1ccc2c(-c3nc(Nc4cc(CN5C[C@@H](C)N[C@@H](C)C5)cc(C5CC5)c4)ncc3Cl)c[nH]c2c1`
A) 5633

Q) Try this compound next: `C/C1=C2/[N-][C@H]([C@H](CC(N)=O)[C@@]2(C)CCC(=O)NC[C@H](C)OP(=O)([O-])O[C@H]2[C@@H](O)[C@@H](n3cnc4cc(C)c(C)cc43)O[C@@H]2CO)[C@]2(C)N=C(/C(C)=C3N=C(/C=C4N=C1[C@@H](CCC(N)=O)C\4(C)C)[C@@H](CCC(N)=O)[C@]\3(C)CC(N)=O)[C@@H](CCC(N)=O)[C@]2(C)CC(N)=O.[CH3-].[Co+3]`
A) 5117

Q) For `CS(=O)(=O)n1cc2c(n1)CN([C@H]1CO[C@H](c3cc(F)ccc3F)[C@@H](N)C1)C2` then?
A) 10870

Q) Subsequent entry: `Cc1ccc(Cn2cc(CNC3=C(Cl)C(=O)c4cccnc4C3=O)nn2)cc1`
A) 7324

Q) Follow-up item: COC(=O)/C=C/c1ccc(O)c(O)c1 [Methyl caffeate]
A) 10819

Q) Same thing, different compound: CC(C)(c1ccc(O)cc1)c1ccc(OCc2cccc(COc3ccc(C(=N)N)cc3)c2)cc1.Cl [BIIL-260 (hydrochloride)]
A) 4407
